Test system: murine macrophage (J774) cell line
assay-name: MTS cytotoxicity assay
setup-conditions: 64 µM / up to a concentration of 64 µM
readout: toxicity to J774 cells

[C-]#[N+]c1ccccc1/C=C(\CC)c1ccc(OC)cc1 | toxic
[C-]#[N+]c1ccccc1/C=C/c1cccc(F)c1 | toxic
[C-]#[N+]c1ccccc1/C=C/c1ccc([N+](=O)[O-])cc1 | toxic
[C-]#[N+]c1ccccc1/C=C(\CC)c1cccc(C(F)(F)F)c1 | toxic
